Attribution: PubChem BioAssay AID1159580

- ASSAY_INFO: chemical genetic growth profiling, strain panel (AID 1159580);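 also: tested at 20 µM; growth read once vehicle control cultures reached saturation at 30 °C; 1 = growth at the plate median or of vehicle wells; lower values mean less growth of the strain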
- ASSAY_SETUP: S. cerevisiae deletion strains, growth OD, locus YNR052C, strain pop2, hits give low values
Among all 5,500 compounds or so, about 2,000 (36%) were called active. About 18% were inconclusive and are not listed. The list shows a part of the results.
MEASURED_ENDPOINT: normalized growth
API doc: respond with a numeric literal and nothing else, no unit.

Example entries begin here.
C[C@@H]1O[C@@H](O[C@H]2C[C@@H](O)[C@]3(CO)C4C(CC[C@]3(O)C2)[C@@]2(O)CC[C@H](C3=CC(=O)OC3)[C@@]2(C)C[C@H]4O)[C@H](O)[C@H](O)[C@H]1O (some centres not stated) :: 0.981
C=C1C(C2(C)C=CC(=O)C(C)(C)C2CC(=O)OC)CC[C@@]2(C)[C@H](c3ccoc3)OC(=O)C3OC132 (some centres not stated) :: 0.984
N[C@@H]1[C@@H](O)[C@H](O)[C@@H](CO)O[C@H]1O :: 1.01
C[C@@H]1CC2C3C[C@H](F)C4=CC(=O)C=C[C@]4(C)[C@@]3(F)[C@@H](O)C[C@]2(C)[C@@]1(O)C(=O)COC(=O)C(C)(C)C (some centres not stated) :: 0.998
C=C1C2CCC3(C)C(c4ccoc4)OC(=O)CC13OC1CC(OC(C)=O)C(C)(C)C(CC(=O)OC)C12C (configuration not stated) :: 1.01

Qu. Would you kindly share the measured normalized growth for CCN(CC)CCOC(=O)C(c1ccccc1)c1ccccc1 ?
Ans. 0.98

Qu. Moving on to the next molecule: C=C1C2=CC(=O)O[C@@H](c3ccoc3)[C@]2(C)CCC1[C@@]1(C)C=CC(=O)C(C)(C)[C@@H]1CC(=O)OC (some centres not stated)
Ans. 1.01

----------
- ASSAY_INFO: chemical genetic growth profiling, strain panel (AID 1159580)
- ASSAY_SETUP: S. cerevisiae deletion strains, growth OD, locus YMR307W, strain GAS1
Among all 5,500 compounds or so, about 2,000 (36%) were called active. Another 18% or so got no clear call; they are omitted. Cut-off read from the data, not from the text of the source: active = normalized growth mostly below about 0.91 (no sharp cut-off); inconclusive = no clear call, values can overlap the other calls; inactive = mostly above about 0.92. This is one part of the list.
Answer with one of the outcomes active, inactive

Qu. Answer briefly: the call reported for C#CCN(C)CCCOc1ccc(Cl)cc1Cl in this assay.
Ans. inactive

----------
- ASSAY_INFO: chemical genetic growth profiling, strain panel (AID 1159580)
- ASSAY_SETUP: S. cerevisiae deletion strains, growth OD, locus YAL021C, strain ccr4, hits give low values
Hit rate of the full screen: of about 5,500 compounds, about 2,000 (36%) were called active. Not shown: some 18% with an inconclusive outcome. Some of the results follow.
MEASURED_ENDPOINT: normalized growth

Cc1cc(O)c(C=O)c2c1C(=O)Oc1c(COC(=O)/C=C/C(=O)O)c(O)c(C(=O)O)c(C)c1O2 :: 0.915 (inactive)
Cc1ncc([N+](=O)[O-])n1CC(C)O (stereo unspecified) :: 0.954 (inactive)
NC(N)=O :: 1.02 (inactive)
C[C@@H]1CC2C3CCC4=CC(=O)C=C[C@]4(C)[C@@]3(F)[C@@H](O)C[C@]2(C)[C@H]1C(=O)CO (stereo partly specified) :: 1 (inactive)
O=[N+]([O-])c1cccc2c(Br)[nH]nc12 :: 0.955 (inactive)

Shift focus to the following entry.
Qu. Would you kindly share the measured normalized growth for C[C@@H]1CC2C3C[C@H](F)C4=CC(=O)C=C[C@]4(C)[C@@]3(F)[C@@H](O)C[C@]2(C)[C@@]1(O)C(=O)COC(=O)C(C)(C)C (stereo partly specified) ?
Ans. 0.995 (inactive)

----------
- ASSAY_INFO: chemical genetic growth profiling, strain panel (AID 1159580)
- ASSAY_SETUP: S. cerevisiae deletion strains, growth OD, locus YHR094C, strain hxt1
Among all 5,500 compounds or so, about 2,000 (36%) were called active. Inconclusive results (about 18%) are left out. No stated cut-off is given here; in the data, active means normalized growth mostly below about 0.91 (no sharp cut-off); inconclusive means no clear call, values can overlap the other calls; inactive means mostly above about 0.92. Some of the results follow.
Answer with one of the outcomes y = active, n = inactive

Example entries begin here.
N[C@H](Cc1cc(I)c(Oc2ccc(O)c(I)c2)c(I)c1)C(=O)O :: n
CCCCSP(=O)(SCCCC)SCCCC :: n
NC(Cc1ccc(F)cc1)C(=O)O (stereo not given) :: n

Next compound, please.
Qu. Answer briefly: the call reported for CC(=O)O[C@H]1C[C@@H](OC(C)=O)C(C)(C)C2CC(=O)[C@]3(C)C(CC[C@@]4(C)[C@H](c5ccoc5)OC(=O)[C@H]5O[C@]543)[C@]21C (stereo not given in full) in this assay.
Ans. n

----------
- ASSAY_INFO: chemical genetic growth profiling, strain panel (AID 1159580)
- ASSAY_SETUP: S. cerevisiae deletion strains, growth OD, locus YPR167C, strain met16
Screen size: about 5,500 compounds; about 2,000 (36%) were called active. Inconclusive results (about 18%) are left out. Rule as the data show it: active = normalized growth mostly below about 0.91 (no sharp cut-off); inconclusive = no clear call, values can overlap the other calls; inactive = mostly above about 0.92. Some of the results follow.
Answer with one of the outcomes y (active), n (inactive)

Example entries begin here.
CCN(CC)C(C)CN1c2ccccc2Sc2ccccc21 (configuration not stated) :: n
CC(CN(C)C)CN1c2ccccc2CCc2ccccc21 (configuration not stated) :: n
CN(C)C(=O)Nc1ccc(Cl)c(Cl)c1 :: n
O=C(Nc1ccccc1)c1ccccc1O :: n
N[C@H](Cc1ccccc1)C(=O)O :: n
NC(Cc1ccc(F)cc1)C(=O)O (configuration not stated) :: n
CC(CN1c2ccccc2Sc2ccccc21)N(C)C (configuration not stated) :: n
CN(C)CCC(c1ccc(Br)cc1)c1ccccn1 (configuration not stated) :: n
N[C@@H](Cc1cc(I)c(Oc2cc(I)c(O)c(I)c2)c(I)c1)C(=O)O :: y
COc1cc2c(cc1/C=C/C(=O)c1cc(OC)c(OC)cc1OC)OCO2 :: n

Qu. Answer briefly: the call reported for CC12CC3CC(C)(C1)CC(N)(C3)C2 in this assay.
Ans. n

Qu. Moving on to the next compound: CC(=O)O[C@H]1C[C@@H](OC(C)=O)C(C)(C)C2CC(=O)[C@]3(C)C(CC[C@@]4(C)[C@H](c5ccoc5)OC(=O)[C@H]5O[C@]543)[C@]21C (some centres not stated)
Ans. n

Qu. Moving on to the next compound: N[C@H](Cc1cc(I)c(Oc2ccc(O)c(I)c2)c(I)c1)C(=O)O
Ans. n

Qu. Moving on to the next compound: CSc1ccc2c(c1)N(CCC1CCCCN1C)c1ccccc1S2 (configuration not stated)
Ans. y

Qu. Moving on to the next compound: COC(=O)CCCOc1ccc(Cl)cc1Cl
Ans. n

Qu. Moving on to the next compound: C=C1[C@H]2CC[C@@]3(C)[C@H](c4ccoc4)OC(=O)C[C@]13O[C@H]1C[C@H](O)C(C)(C)[C@H](CC(=O)OC)[C@]12C
Ans. n

----------
- ASSAY_INFO: chemical genetic growth profiling, strain panel (AID 1159580);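 also: tested at 20 µM; growth read once vehicle control cultures reached saturation at 30 °C; 1 = growth at the plate median or of vehicle wells; lower values mean less growth of the strain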
- ASSAY_SETUP: S. cerevisiae deletion strains, growth OD, locus YOL136C, strain PFK27, hits give low values
The whole screen tested about 5,500 compounds, of which about 2,000 (36%) were called active. About 18% were inconclusive and are not listed. The list shows a part of the results.
compounds and their reported normalized growth
API doc: respond with a numeric literal and nothing else, no unit.

O=C(Nc1ccc(Cl)cc1)O/N=C\c1ccn(-c2ccccc2)n1 :: 0.797
O=[N+]([O-])c1ccc(-c2csc(Nc3ccncc3)n2)cc1 :: 0.979
Cc1ccc(S(=O)(=O)Nc2ccc(Oc3ccc(F)cc3)cc2)cc1 :: 0.88

Shift focus to the following entry.
Qu. Would you kindly share the measured normalized growth for CSC(=NNc1ccccc1)NC(=O)c1c(Cl)cccc1Cl ?
Ans. 0.842

----------
- ASSAY_INFO: chemical genetic growth profiling, strain panel (AID 1159580);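 also: tested at 20 µM; growth read once vehicle control cultures reached saturation at 30 °C; 1 = growth at the plate median or of vehicle wells; lower values mean less growth of the strain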
- ASSAY_SETUP: S. cerevisiae deletion strains, growth OD, locus YLR058C, strain SHM2 (second series)
Out of some 5,500 compounds screened, about 2,000 (36%) were called active. Not shown: some 18% with an inconclusive outcome. No stated cut-off is given here; in the data, active means normalized growth mostly below about 0.91 (no sharp cut-off); inconclusive means no clear call, values can overlap the other calls; inactive means mostly above about 0.92. This is one part of the list.
Answer with one of the outcomes True = active, False = inactive

CC(=O)Nc1ccc(S(=O)(=O)Nc2ncccn2)cc1 :: False
Cc1ccc(OCc2nnc(SCC(=O)Nc3cccc4c3OCO4)n2-c2ccccc2)c2c1CCC2 :: False

Qu. Answer briefly: the call reported for Cc1ccc(S(=O)(=O)Nc2ccc(C)c([N+](=O)[O-])c2)cc1 in this assay.
Ans. False

Qu. Moving on to the next compound: COC(=O)COc1ccc(C(C)=O)cc1
Ans. False

Qu. Moving on to the next compound: Clc1ccc(OCCOc2ccc(Cl)cc2)cc1
Ans. False

Qu. Moving on to the next compound: O=C(O)CCOc1ccc(Cl)cc1
Ans. True

----------
compounds and their reported normalized growth
- ASSAY_INFO: chemical genetic growth profiling, strain panel (AID 1159580);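 also: tested at 20 µM; growth read once vehicle control cultures reached saturation at 30 °C; 1 = growth at the plate median or of vehicle wells; lower values mean less growth of the strain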
- ASSAY_SETUP: S. cerevisiae deletion strains, growth OD, locus YPR135W, strain CTF4, hits give low values
The whole screen tested about 5,500 compounds, of which about 2,000 (36%) were called active. Another 18% or so got no clear call; they are omitted. This is one part of the list.
API doc: respond with a numeric literal and nothing else, no unit.

N#Cc1cccc(Cn2c(=O)oc3ccccc32)c1 :: 1
COc1ccc(C(=O)C2CCNCC2)cc1 :: 0.995
COc1ccc(OCC(N)=O)cc1 :: 1.04
O=C(O)Cc1ccccc1I :: 1.05

Qu. Would you kindly share the measured normalized growth for CC(=O)Nc1ccc(C(F)(F)F)cc1Br ?
Ans. 0.897

Qu. Moving on to the next compound: CCC(=O)c1c(C)c(C)c(C)c(C)c1C
Ans. 0.976

Qu. Moving on to the next compound: O=C(NCc1nc(-c2ccc(C(F)(F)F)cc2)no1)Nc1ccc(F)cc1F
Ans. 1.01
